biological target: L-lactate dehydrogenase (Plasmodium falciparum (isolate CDC / Honduras)); experiment: PfLDH activity inhibition – cell lysate, 3D7 strain, counter-screen for P. falciparum growth inhibition project (AID 2304);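 also: 0% = vehicle and 100% = reference inhibitor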; conditions: P. falciparum 3D7 crude extract, LDH APAD/NBT absorbance; at 2 µM; stronger effect = higher value
MEASUREMENT_TYPE: inhibition (%)
One number for each entry, in %.

Could you tell me inhibition for each of these compounds? They are listed below.
1. Nc1c(C(=O)NCCCCN2CCN(c3nsc4ccccc34)CC2)sc2ccccc12
2. CCOC(=O)c1ccc(NC(=O)Nc2ccc(Cn3ncc(N4CCCNCC4)c(Cl)c3=O)cc2)cc1
3. CCc1c[nH]c2c(N3CCCC3=O)cc(C(=O)N[C@@H](Cc3ccccc3)[C@H](O)CNC3CCCCC3)cc12
4. Cc1ccc(NC(=O)NC2CCN(c3ccnc4cc(Cl)ccc34)CC2)cc1
5. CC[C@H](C)CNC(=O)c1cncc(-c2ccc(CN(C)C3CCN(C)CC3)cc2)c1

[reply]
1: -5; 2: 2; 3: -1; 4: -2; 5: -2

Items follow; give inhibition for each.
1. COc1ccc(CC2(c3ccc(F)cc3)N=C(N)N(CCCc3ccc4c(c3)OCO4)C2=O)cc1 (stereo not given)
2. COc1cccc(CCc2cccc(CNC(C)=O)c2)c1
3. CNc1ccc(CNCc2ccc(-c3ccc(-c4nc5c(C)cccc5[nH]4)cc3)cc2)cc1
4. Cc1cc(NN=Cc2ccccn2)c2cc(F)ccc2n1
5. CSc1cccc(Nc2nc3ccc(S(=O)(=O)NC(C)C(C)C)cc3n2[C@H](C)C(C)(C)C)c1 (stereo not given in full)

[reply]
1. 3
2. -2
3. -8
4. 5
5. 0
